# System: human red blood cells
# ASSAY_TEXT: Cytotoxicity: hemolysis of human red blood cells
# Type: cell-based
No end group written: not given here.
# if measured Hemolytic activity (% ± SD) at 64 µM < 4%: yes  # else: no

Recorded results for 8 substances are shown here.
INSERT INTO assay_data (substance, class_assignment) VALUES
  ('GSLHGFMYKYLKNMVLNLF-NH2 [Tc06]', 'yes'),
  ('GSLHGFMYRYLKNMVLNLF-NH2 [Cs01]', 'yes'),
  ('GFKDLLKGAAKALVKTVLF-NH2 [Asc-8, Ascaphin-8, reference compound]', 'no'),
  ('IVNHLVKLFDKGLNSIVNLR-NH2 [Tc05]', 'yes'),
  ('GLWSTIKQKGKEAAIAAAKAAGQAALGAL-NH2 [DS01, Dermaseptin DS01, reference compound]', 'yes'),
  ('GSLHGFMYKYLKTLVLRLY-NH2 [Zm01]', 'no'),
  ('GLYNFIKVLGRTVFGLYKQF-NH2 [At04]', 'no'),
  ('KVLSKVHTLLKAVLAL-NH2 [At02]', 'no');

--- query ---
Req: Hemolytic activity (% ± SD) at 64 µM strictly < 4% for this substance? GLLFKELQKLIRYQIFIGK-NH2 [Tc10]
Resp: yes
